Biological target: Sigma intracellular receptor 2 (Homo sapiens, UniProt Q5BJF2)
Sequence (Q5BJF2 whole entry): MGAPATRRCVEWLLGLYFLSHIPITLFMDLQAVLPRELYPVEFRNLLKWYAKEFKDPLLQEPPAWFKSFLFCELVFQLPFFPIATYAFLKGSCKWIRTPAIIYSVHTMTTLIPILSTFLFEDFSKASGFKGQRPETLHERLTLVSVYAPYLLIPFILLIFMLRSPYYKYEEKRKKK
Assay: GPCRScan assay: inhibition of Sigma 2
MEASURE: Ki

response.value for "CN(C)CC#Cc1ccc(OCCCc2sc(N3CCc4cccc(C(=O)Nc5nc6ccccc6s5)c4C3)nc2C(=O)O)c(F)c1" (field: Ki) = 0.806 µM

* * *

Biological target: Histamine H3 receptor (Homo sapiens, UniProt Q9Y5N1)
Sequence (Q9Y5N1 whole entry): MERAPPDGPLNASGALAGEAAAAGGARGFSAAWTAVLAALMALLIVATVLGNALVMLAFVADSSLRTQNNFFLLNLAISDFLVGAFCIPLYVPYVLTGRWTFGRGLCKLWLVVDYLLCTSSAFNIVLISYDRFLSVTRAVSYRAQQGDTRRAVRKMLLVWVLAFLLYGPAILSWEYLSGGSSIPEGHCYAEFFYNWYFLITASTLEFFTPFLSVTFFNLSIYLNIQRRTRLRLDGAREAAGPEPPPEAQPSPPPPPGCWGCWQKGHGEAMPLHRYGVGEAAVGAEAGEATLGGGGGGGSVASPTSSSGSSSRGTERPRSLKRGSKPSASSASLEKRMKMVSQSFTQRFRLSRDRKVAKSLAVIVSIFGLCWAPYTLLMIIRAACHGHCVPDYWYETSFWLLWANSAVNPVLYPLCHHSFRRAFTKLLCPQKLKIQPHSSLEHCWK
MEASURE: Ki (µM)
Answers are plain numbers, in µM.

response.value for "CN(C)CC#Cc1ccc(OCCCc2sc(N3CCc4cccc(C(=O)Nc5nc6ccccc6s5)c4C3)nc2C(=O)O)c(F)c1" (field: Ki) = 1.81

* * *

Target: Delta-type opioid receptor (Homo sapiens)
Sequence (P41143 whole entry): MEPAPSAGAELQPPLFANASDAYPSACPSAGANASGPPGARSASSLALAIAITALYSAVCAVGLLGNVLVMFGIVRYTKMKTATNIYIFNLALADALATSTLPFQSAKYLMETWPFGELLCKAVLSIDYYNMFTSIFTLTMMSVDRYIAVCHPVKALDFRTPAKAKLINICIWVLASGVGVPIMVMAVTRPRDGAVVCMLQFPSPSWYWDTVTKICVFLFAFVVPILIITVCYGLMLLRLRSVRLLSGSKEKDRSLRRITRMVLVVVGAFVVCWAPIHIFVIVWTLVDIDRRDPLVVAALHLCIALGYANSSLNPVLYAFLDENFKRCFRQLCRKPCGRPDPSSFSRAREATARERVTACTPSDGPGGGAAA
Test: GPCRScan assay: inhibition of DOR
MEASURE: pKi
Answers are plain numbers, as −log10 of the molar value.

response.value for "CN(C)CC#Cc1ccc(OCCCc2sc(N3CCc4cccc(C(=O)Nc5nc6ccccc6s5)c4C3)nc2C(=O)O)c(F)c1" (field: pKi) = 5.67

* * *

Hi there, I'd appreciate the recorded inhibition at 90 min, 10 µM for every entry that follows.
Target: L-type Ca2+ channel (dihydropyridine site) (Rattus norvegicus, UniProt P22002+P27732+Q02485)
Assay: Ca2+ channel (L, dihydropyridine site) Eurofins-Cerep binding assay
Type: protein assay
Set-up: incubation time 90 min, incubation temperature RT, ligand concentration 0.1 nM
Settings: rat cerebral cortex, probe [3H]nitrendipine (0.1 nM), compound concentration 10 uM, read-out: % Inhibition of Control Specific Binding (Mean n=2)
Give bare numbers, in %.

response.value for O=C(Nc1nc2ccccc2s1)c1cccc2c1CN(c1nc(C(=O)O)c(CCOc3ccc(-n4ncc5cncnc54)cc3)s1)CC2 [A-1107969] (field: inhibition at 90 min, 10 µM) = -2.2

New cases:
response.value for CN(C)CC#Cc1ccc(OCCCc2sc(N3CCc4cccc(C(=O)Nc5nc6ccccc6s5)c4C3)nc2C(=O)O)c(F)c1 [A-1155463] (field: inhibition at 90 min, 10 µM) = -21.8
